measuredTarget: F508delCFTR (Homo sapiens, UniProt P13569, DEL508-508)
Construct: expressed in transfected cells; host or cells: CFBE41o- human lung derived epithelial cells (CFBE41o-F508delCFTR-HRP), doxycycline-inducible
Sequence (P13569 with tags, fused parts or gaps DEL508-508): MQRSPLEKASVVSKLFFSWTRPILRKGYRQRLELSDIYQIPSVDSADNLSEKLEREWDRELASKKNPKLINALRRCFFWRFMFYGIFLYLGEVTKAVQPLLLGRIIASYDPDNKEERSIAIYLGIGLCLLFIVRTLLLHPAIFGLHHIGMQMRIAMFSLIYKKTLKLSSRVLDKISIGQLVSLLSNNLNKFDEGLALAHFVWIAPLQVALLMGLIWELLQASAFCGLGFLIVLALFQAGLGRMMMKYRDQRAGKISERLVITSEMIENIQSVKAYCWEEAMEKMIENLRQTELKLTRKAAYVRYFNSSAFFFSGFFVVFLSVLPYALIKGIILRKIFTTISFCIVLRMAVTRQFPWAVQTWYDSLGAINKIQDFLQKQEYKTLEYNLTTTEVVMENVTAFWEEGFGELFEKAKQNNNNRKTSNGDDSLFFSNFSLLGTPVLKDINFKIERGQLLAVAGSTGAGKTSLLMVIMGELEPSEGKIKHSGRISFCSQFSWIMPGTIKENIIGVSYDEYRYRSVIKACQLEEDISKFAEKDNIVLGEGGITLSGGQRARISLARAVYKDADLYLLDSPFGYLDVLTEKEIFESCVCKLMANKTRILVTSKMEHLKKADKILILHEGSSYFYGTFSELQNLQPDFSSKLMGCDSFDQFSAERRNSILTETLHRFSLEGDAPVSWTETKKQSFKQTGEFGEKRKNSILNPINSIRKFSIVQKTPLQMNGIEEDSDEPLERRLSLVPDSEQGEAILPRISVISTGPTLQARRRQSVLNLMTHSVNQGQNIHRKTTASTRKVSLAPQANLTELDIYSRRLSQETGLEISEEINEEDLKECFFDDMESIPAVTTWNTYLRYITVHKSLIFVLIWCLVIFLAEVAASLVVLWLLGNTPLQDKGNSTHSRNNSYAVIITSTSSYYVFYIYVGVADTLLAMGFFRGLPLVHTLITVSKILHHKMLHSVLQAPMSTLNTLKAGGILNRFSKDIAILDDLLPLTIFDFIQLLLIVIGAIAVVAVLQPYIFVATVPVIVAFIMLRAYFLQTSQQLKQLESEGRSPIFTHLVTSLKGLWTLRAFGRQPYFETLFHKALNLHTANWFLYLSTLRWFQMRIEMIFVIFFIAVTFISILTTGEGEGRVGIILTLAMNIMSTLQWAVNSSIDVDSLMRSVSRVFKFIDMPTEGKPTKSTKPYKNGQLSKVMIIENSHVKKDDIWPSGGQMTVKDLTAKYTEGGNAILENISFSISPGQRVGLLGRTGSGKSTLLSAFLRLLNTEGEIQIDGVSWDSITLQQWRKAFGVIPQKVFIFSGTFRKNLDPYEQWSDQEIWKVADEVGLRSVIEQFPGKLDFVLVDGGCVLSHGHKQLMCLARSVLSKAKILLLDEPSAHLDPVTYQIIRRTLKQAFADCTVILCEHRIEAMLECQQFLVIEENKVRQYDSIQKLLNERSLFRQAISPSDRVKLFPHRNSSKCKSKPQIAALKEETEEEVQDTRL
assayOverview: Cell Surface Expression-Horse Radish Peroxidase (CSE-HRP) Assay;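 on EC50 (with co-corrector): co-corrector chromenyl benzoic acid corrector at 2 or 3 µM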
Format: cell-based
protocolConditions: test compound with co-corrector; read-out: EC50 (with co-corrector)
pEC50: −log10 of the molar value.
propertyLabel: pEC50

Request: Entry CCOc1ncc(CC)cc1C1(C(=O)NS(=O)(=O)c2cccc3nc(C)ccc23)CC1 [Example GI-117] needs its pEC50 filled in; supply it.
Result: > 5.52

Request: Entry Cc1ccc2c(S(=O)(=O)NC(=O)C3(c4cc(C5CCC5)cnc4OCC(C)C)CC3)cccc2n1 [Example GI-53] needs its pEC50 filled in; supply it.
Result: > 5.52

Request: Entry CC(C)COc1ccc(OC(C)C)c(C2(C(=O)NS(=O)(=O)c3cccc4[nH]ccc34)CC2)n1 [Example GI-89] needs its pEC50 filled in; supply it.
Result: > 5.52

Request: Entry CCc1ncc(OC)cc1C1(C(=O)NS(=O)(=O)c2cccc3ncccc23)CC1 [GII-17] needs its pEC50 filled in; supply it.
Result: 5.00 to 5.52

Request: Entry CCc1cnc(N2CCC(OC(C)C)CC2)c(C2(C(=O)NS(=O)(=O)c3cccc4ncccc34)CC2)c1 [GII-54] needs its pEC50 filled in; supply it.
Result: 5.00 to 5.52

Request: Entry CC(C)Oc1ncccc1C1(C(=O)NS(=O)(=O)c2cccc3c2CCCN3)CC1 [GII-4] needs its pEC50 filled in; supply it.
Result: 5.00 to 5.52

Request: Entry O=C(NS(=O)(=O)c1cccc2[nH]ccc12)C1(c2cc(C3CC3)cnc2N2CCCC2)CC1 [Example GI-34] needs its pEC50 filled in; supply it.
Result: > 5.52

Request: Entry COc1cnc(OCC(C)C)c(C2(C(=O)NS(=O)(=O)c3cccc4ncccc34)CC2)c1 [Example GI-77] needs its pEC50 filled in; supply it.
Result: > 5.52

---

measuredTarget: F508delCFTR (Homo sapiens, UniProt P13569, DEL508-508)
Construct: expressed in transfected cells; host or cells: CFBE41o- human lung derived epithelial cells (CFBE41o-F508delCFTR-HRP), doxycycline-inducible
assayOverview: Cell Surface Expression-Horse Radish Peroxidase (CSE-HRP) Assay
Type: cell-based
protocolConditions: test compound alone, without co-corrector; read-out: EC50 (without co-corrector)
Could you please report measured EC50 for the items listed next?

Request: Please tell me the measured EC50 for O=C(NS(=O)(=O)c1cccc2c1CCCN2)C1(c2cc(OC(F)(F)F)ccc2Cl)CC1 ; system: F508delCFTR (Homo sapiens, UniProt P13569, DEL508-508).
Result: 3 to 10 µM

Request: Please tell me the measured EC50 for COCC1(c2ccc(OC)c(C3(C(=O)NS(=O)(=O)c4cccc5nc(N)ccc45)CC3)c2)CC1 ; system: F508delCFTR (Homo sapiens, UniProt P13569, DEL508-508).
Result: 3 to 10 µM

Request: Please tell me the measured EC50 for CCCc1nc(C(F)(F)F)ccc1C1(C(=O)NS(=O)(=O)c2cccc3ncccc23)CC1 ; system: F508delCFTR (Homo sapiens, UniProt P13569, DEL508-508).
Result: 3 to 10 µM

Request: Please tell me the measured EC50 for COc1cccc(OCC2CC2)c1C1(C(=O)NS(=O)(=O)c2cccc3ncccc23)CC1 ; system: F508delCFTR (Homo sapiens, UniProt P13569, DEL508-508).
Result: < 3 µM

Request: Please tell me the measured EC50 for COc1ccc(C2CC2)c(C)c1C1(C(=O)NS(=O)(=O)c2cccc3c2CCCN3)CC1 ; system: F508delCFTR (Homo sapiens, UniProt P13569, DEL508-508).
Result: < 3 µM

Request: Please tell me the measured EC50 for COc1ccc(C2(C(=O)NS(=O)(=O)c3cccc4ccccc34)CCCC2)cc1OC ; system: F508delCFTR (Homo sapiens, UniProt P13569, DEL508-508).
Result: > 10 µM

Request: Please tell me the measured EC50 for COC[C@H](C)Oc1ccc(C)cc1C1(C(=O)NS(=O)(=O)c2cccc3ncccc23)CC1 ; system: F508delCFTR (Homo sapiens, UniProt P13569, DEL508-508).
Result: < 3 µM

Request: Please tell me the measured EC50 for COc1cccc(C)c1C1(C(=O)NS(=O)(=O)c2cccc3ncccc23)CC1 ; system: F508delCFTR (Homo sapiens, UniProt P13569, DEL508-508).
Result: 3 to 10 µM

Request: Please tell me the measured EC50 for COc1ncc(C2CCC2)cc1C1(C(=O)NS(=O)(=O)c2cccc3nc(C)ccc23)CC1 ; system: F508delCFTR (Homo sapiens, UniProt P13569, DEL508-508).
Result: < 3 µM

Request: Please tell me the measured EC50 for COc1cc(C2CCC2)cc(OC)c1C1(C(=O)NS(=O)(=O)c2cccc3nc(C)ccc23)CC1 ; system: F508delCFTR (Homo sapiens, UniProt P13569, DEL508-508).
Result: < 3 µM

Request: Please tell me the measured EC50 for COc1cc(C)ccc1C1(C(=O)NS(=O)(=O)c2cccc3ncccc23)CC1 ; system: F508delCFTR (Homo sapiens, UniProt P13569, DEL508-508).
Result: < 3 µM

Request: Please tell me the measured EC50 for COc1cccc(C)c1C1(C(=O)NS(=O)(=O)c2cccc3c2ccn3C)CC1 ; system: F508delCFTR (Homo sapiens, UniProt P13569, DEL508-508).
Result: 3 to 10 µM

Request: Please tell me the measured EC50 for CCc1cnc(OC(C)C)c(C2(C(=O)NS(=O)(=O)c3cccc4ncccc34)CC2)c1 ; system: F508delCFTR (Homo sapiens, UniProt P13569, DEL508-508).
Result: < 3 µM

Request: Please tell me the measured EC50 for [2H]C1(c2ccc(OC)c(C3(C(=O)NS(=O)(=O)c4cccc5ncccc45)CC3)c2)COC1 ; system: F508delCFTR (Homo sapiens, UniProt P13569, DEL508-508).
Result: 3 to 10 µM

Request: Please tell me the measured EC50 for Cc1ccc2c(S(=O)(=O)NC(=O)C3(c4cc(N(C)C)cnc4OCC(C)C)CC3)cccc2n1 ; system: F508delCFTR (Homo sapiens, UniProt P13569, DEL508-508).
Result: < 3 µM

Request: Please tell me the measured EC50 for COc1ncc(C2CCC2)c(C)c1C1(C(=O)NS(=O)(=O)c2cccc3ccn(C)c23)CC1 ; system: F508delCFTR (Homo sapiens, UniProt P13569, DEL508-508).
Result: 3 to 10 µM

Request: Please tell me the measured EC50 for CO[C@H](C)COc1ccc(C)cc1C1(C(=O)NS(=O)(=O)c2cccc3ncccc23)CC1 ; system: F508delCFTR (Homo sapiens, UniProt P13569, DEL508-508).
Result: < 3 µM

Request: Please tell me the measured EC50 for CCOc1ccc(C)cc1C1(C(=O)NS(=O)(=O)c2cccc3nc(NC)ccc23)CC1 ; system: F508delCFTR (Homo sapiens, UniProt P13569, DEL508-508).
Result: < 3 µM

Request: Please tell me the measured EC50 for CCc1cnc(OC(C)C)c(C2(C(=O)NS(=O)(=O)c3cccc4c3CCCN4)CC2)c1 ; system: F508delCFTR (Homo sapiens, UniProt P13569, DEL508-508).
Result: 3 to 10 µM

Request: Please tell me the measured EC50 for COc1cccc(C2(C(=O)NS(=O)(=O)c3cccc4ccccc34)CC2)c1 ; system: F508delCFTR (Homo sapiens, UniProt P13569, DEL508-508).
Result: 3 to 10 µM

Request: Please tell me the measured EC50 for COc1ccc(C(F)(F)F)cc1C1(C(=O)NS(=O)(=O)c2cccc3c2CCCN3)CC1 ; system: F508delCFTR (Homo sapiens, UniProt P13569, DEL508-508).
Result: < 3 µM

Request: Please tell me the measured EC50 for O=C(NS(=O)(=O)c1cccc2c1CCCN2)C1(c2ccc(C(F)(F)F)nc2C2CCC2)CC1 ; system: F508delCFTR (Homo sapiens, UniProt P13569, DEL508-508).
Result: < 3 µM

Request: Please tell me the measured EC50 for O=C(NS(=O)(=O)c1cccc2c(O)cccc12)C1(c2cccc(Cl)c2)CC1 ; system: F508delCFTR (Homo sapiens, UniProt P13569, DEL508-508).
Result: > 10 µM

Request: Please tell me the measured EC50 for COc1cccc(C2(C(=O)NS(=O)(=O)c3cccc4ncccc34)CC2)c1 ; system: F508delCFTR (Homo sapiens, UniProt P13569, DEL508-508).
Result: 3 to 10 µM

Request: Please tell me the measured EC50 for Cc1ccc(O[C@H]2CCOC2)c(C2(C(=O)NS(=O)(=O)c3cccc4nc(C)ccc34)CC2)c1 ; system: F508delCFTR (Homo sapiens, UniProt P13569, DEL508-508).
Result: < 3 µM

Request: Please tell me the measured EC50 for Cc1ccc2c(S(=O)(=O)NC(=O)C3(c4cc(Cl)ccc4OC(F)F)CC3)cccc2n1 ; system: F508delCFTR (Homo sapiens, UniProt P13569, DEL508-508).
Result: 3 to 10 µM

Request: Please tell me the measured EC50 for COc1cc(OC(C)C)c(C2(C(=O)NS(=O)(=O)c3cccc4ncccc34)CC2)cn1 ; system: F508delCFTR (Homo sapiens, UniProt P13569, DEL508-508).
Result: 3 to 10 µM

Request: Please tell me the measured EC50 for COc1ccc(Br)cc1C1(C(=O)NS(=O)(=O)c2cccc3ccccc23)CC1 ; system: F508delCFTR (Homo sapiens, UniProt P13569, DEL508-508).
Result: < 3 µM

Request: Please tell me the measured EC50 for CN(C)c1cccc2c(S(=O)(=O)NC(=O)C3(c4cccc(Cl)c4)CC3)cccc12 ; system: F508delCFTR (Homo sapiens, UniProt P13569, DEL508-508).
Result: > 10 µM

Request: Please tell me the measured EC50 for CCOc1ccc(C(C)(C)OCC)cc1C1(C(=O)NS(=O)(=O)c2cccc3nc(C)ccc23)CC1 ; system: F508delCFTR (Homo sapiens, UniProt P13569, DEL508-508).
Result: < 3 µM

Request: Please tell me the measured EC50 for COc1cccc(C)c1C1(C(=O)NS(=O)(=O)c2cccc3ccc(C)nc23)CC1 ; system: F508delCFTR (Homo sapiens, UniProt P13569, DEL508-508).
Result: 3 to 10 µM

Request: Please tell me the measured EC50 for CCOc1ccc(C)cc1C1(C(=O)NS(=O)(=O)c2cccc3ncccc23)CC1 ; system: F508delCFTR (Homo sapiens, UniProt P13569, DEL508-508).
Result: < 3 µM

Request: Please tell me the measured EC50 for COc1c(Cl)cc(Cl)c(OC)c1C1(C(=O)NS(=O)(=O)c2cccc3ncccc23)CC1 ; system: F508delCFTR (Homo sapiens, UniProt P13569, DEL508-508).
Result: 3 to 10 µM
